- measured target: hEPHA5 (Homo sapiens, UniProt P54756)
- Sequence (P54756 25-1037): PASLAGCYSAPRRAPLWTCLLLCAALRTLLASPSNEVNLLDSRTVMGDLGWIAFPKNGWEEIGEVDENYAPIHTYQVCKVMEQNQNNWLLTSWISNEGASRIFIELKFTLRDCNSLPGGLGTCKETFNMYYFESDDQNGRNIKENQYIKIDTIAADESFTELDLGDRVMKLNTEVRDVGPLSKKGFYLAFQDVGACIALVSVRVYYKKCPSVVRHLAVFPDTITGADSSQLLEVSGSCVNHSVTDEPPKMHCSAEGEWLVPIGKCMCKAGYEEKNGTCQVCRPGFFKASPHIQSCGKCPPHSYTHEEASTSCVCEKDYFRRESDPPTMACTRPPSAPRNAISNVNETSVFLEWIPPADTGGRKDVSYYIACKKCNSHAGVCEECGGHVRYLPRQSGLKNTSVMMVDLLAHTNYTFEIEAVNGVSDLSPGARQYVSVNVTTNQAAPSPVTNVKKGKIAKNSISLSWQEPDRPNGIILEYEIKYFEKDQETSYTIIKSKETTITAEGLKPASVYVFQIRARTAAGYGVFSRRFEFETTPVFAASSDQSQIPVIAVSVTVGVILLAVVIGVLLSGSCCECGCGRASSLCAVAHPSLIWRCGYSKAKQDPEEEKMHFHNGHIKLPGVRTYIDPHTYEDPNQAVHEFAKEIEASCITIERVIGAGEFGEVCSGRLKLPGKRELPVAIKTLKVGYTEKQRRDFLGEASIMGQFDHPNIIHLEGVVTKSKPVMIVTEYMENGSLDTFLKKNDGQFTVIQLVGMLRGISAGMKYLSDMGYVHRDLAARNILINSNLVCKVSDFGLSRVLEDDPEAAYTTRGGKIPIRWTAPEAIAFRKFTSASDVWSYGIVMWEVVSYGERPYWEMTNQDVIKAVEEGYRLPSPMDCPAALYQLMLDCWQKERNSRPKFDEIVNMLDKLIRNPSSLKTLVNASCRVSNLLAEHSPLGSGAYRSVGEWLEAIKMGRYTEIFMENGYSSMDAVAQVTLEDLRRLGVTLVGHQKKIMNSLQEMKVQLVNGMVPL

{"smiles notation": "Cc1cn(CCN2CCN(c3ccccc3-c3cc(C#N)cc(C(=O)NCCCN4CCCC4)c3)CC2)c2ccccc12", "IC50": "> 20 µM"}

----------
- measured target: hERK2 (Homo sapiens)
- Sequence (P28482 whole entry): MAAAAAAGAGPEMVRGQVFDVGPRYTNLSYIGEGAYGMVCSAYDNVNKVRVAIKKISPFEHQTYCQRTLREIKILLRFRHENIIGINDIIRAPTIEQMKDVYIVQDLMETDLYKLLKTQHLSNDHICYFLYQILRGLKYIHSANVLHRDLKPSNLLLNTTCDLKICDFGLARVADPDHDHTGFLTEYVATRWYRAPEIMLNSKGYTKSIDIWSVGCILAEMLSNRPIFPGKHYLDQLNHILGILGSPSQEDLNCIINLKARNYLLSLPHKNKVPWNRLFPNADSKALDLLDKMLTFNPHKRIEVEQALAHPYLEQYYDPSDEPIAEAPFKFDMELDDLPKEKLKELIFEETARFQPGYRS
observed property: IC50

{"compound": "Cc1cn(CCN2CCN(c3ccccc3-c3cc(C#N)cc(C(=O)NCCCN4CCCC4)c3)CC2)c2ccccc12 [LLY-507]", "observed property": "IC50", "data value": "> 20 µM"}

----------
- measured target: UniProt:P49841
- Sequence (P49841 whole entry): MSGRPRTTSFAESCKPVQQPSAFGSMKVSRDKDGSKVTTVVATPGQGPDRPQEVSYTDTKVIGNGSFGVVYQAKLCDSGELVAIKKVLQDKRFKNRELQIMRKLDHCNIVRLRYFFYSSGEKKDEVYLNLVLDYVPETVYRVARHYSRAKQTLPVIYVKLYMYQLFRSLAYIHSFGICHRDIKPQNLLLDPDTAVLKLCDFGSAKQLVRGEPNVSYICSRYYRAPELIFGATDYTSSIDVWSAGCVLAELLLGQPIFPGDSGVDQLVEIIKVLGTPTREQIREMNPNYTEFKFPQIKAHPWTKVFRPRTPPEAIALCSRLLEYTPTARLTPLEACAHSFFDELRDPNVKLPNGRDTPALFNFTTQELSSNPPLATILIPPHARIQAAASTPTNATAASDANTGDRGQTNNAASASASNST
observed property: IC50

{"smiles notation": "Cc1cn(CCN2CCN(c3ccccc3-c3cc(C#N)cc(C(=O)NCCCN4CCCC4)c3)CC2)c2ccccc12", "observed property": "IC50", "data value": "> 20 µM"}
